measurement.target: MMP-9 (Homo sapiens)
Construct: purchased Biomol
Sequence (P14780 107-444 limits assumed): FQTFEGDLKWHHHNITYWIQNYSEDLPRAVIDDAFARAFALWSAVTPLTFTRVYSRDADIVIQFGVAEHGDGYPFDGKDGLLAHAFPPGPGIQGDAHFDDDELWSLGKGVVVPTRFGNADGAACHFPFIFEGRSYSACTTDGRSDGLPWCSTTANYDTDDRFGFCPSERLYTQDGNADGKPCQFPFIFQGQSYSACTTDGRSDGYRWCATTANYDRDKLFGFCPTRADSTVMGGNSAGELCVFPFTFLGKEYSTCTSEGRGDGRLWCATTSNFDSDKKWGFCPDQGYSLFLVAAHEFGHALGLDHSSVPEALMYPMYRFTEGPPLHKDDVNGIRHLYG
measurement.protocol: In vitro specific inhibition of MMP-9 activity (Biomol assay kit)
Assay type: biochemical
measurement.parameters: selected standards, Table 4; read-out: inhibition expressed as IC50 against MMP-9 (converted)
Here the recorded IC50 is given for each entry.
Give the number; µM is assumed, so skip it.

smiles.repr	value.measured
COc1cc2ccc(=O)oc2cc1O	130
COc1cc(/C=C/C(=O)O)ccc1O	103
O=c1c(O[C@@H]2O[C@H](CO)[C@@H](O)[C@H](O)[C@H]2O)c(-c2ccc(O)c(O)c2)oc2cc(O)cc(O)c12	198
C[C@@H]1O[C@@H](OC[C@H]2O[C@@H](Oc3c(-c4ccc(O)c(O)c4)oc4cc(O)cc(O)c4c3=O)[C@H](O)[C@@H](O)[C@@H]2O)[C@H](O)[C@H](O)[C@H]1O	70.4
O=c1c(O)c(-c2ccc(O)c(O)c2)oc2cc(O)cc(O)c12	62.9

// switching to the query compound
Query :: Recall the reported IC50 of COc1cc2ccc(=O)oc2cc1OC on MMP-9 (Homo sapiens) and write it down.
Result :: 48.5
